Reference source for all entries: PubChem BioAssay AID1159580

For each entry below, report its normalized growth value.
Experiment: chemical genetic growth profiling, strain panel (AID 1159580);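 also: tested at 20 µM; growth read once vehicle control cultures reached saturation at 30 °C; 1 = growth at the plate median or of vehicle wells; lower values mean less growth of the strain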
Conditions: S. cerevisiae deletion strains, growth OD, locus YMR129W, stronger effect = lower value
The whole screen tested about 5,500 compounds, of which about 2,000 (36%) were called active. Inconclusive results (about 18%) are left out. This is one part of the list.
Answers are plain numbers.

Solved cases (3 shown):
Compound: C=C1C2CC[C@@]3(C)[C@H](c4ccoc4)OC(=O)C[C@]13O[C@H]1CC(=O)C(C)(C)[C@H](C(OC(C)=O)C(=O)OC)[C@@]21C (some centres not stated)
Value: 1.01
//
Compound: CCOC(=O)n1ccn(C)c1=S
Value: 0.979
//
Compound: Oc1ccc2c(c1)O[C@H](c1ccc(O)c(O)c1)[C@@H](O)C2
Value: 1.03

Dear colleague, could you send me normalized growth for each of the items below? Thanks.
1. Oc1cc(O)c2c(c1)O[C@H](c1ccc(O)c(O)c1)[C@H](O)C2
2. CCCCNC(=O)NS(=O)(=O)c1ccc(C)cc1

[1, 1.01]

Respectfully, I request normalized growth for each entry included below.
1. CCCCC/C=C/CCC(=O)N[C@H]1[C@H](Oc2c3cc4cc2Oc2ccc(cc2Cl)[C@@H](O[C@@H]2O[C@H](CO)[C@@H](O)[C@H](O)[C@H]2NC(C)=O)[C@@H]2NC(=O)[C@H](NC(=O)[C@@H]4NC(=O)[C@H]4NC(=O)C(Cc5ccc(c(Cl)c5)O3)NC(=O)[C@H](N)c3ccc(O)c(c3)Oc3cc(O)cc4c3)c3ccc(O)c(c3)-c3c(OC4O[C@H](CO)[C@@H](O)[C@H](O)[C@@H]4O)cc(O)cc3[C@@H](C(=O)O)NC2=O)O[C@H](CO)[C@@H](O)[C@@H]1O (some centres not stated)
2. COc1ccc([C@H]2Oc3c(I)c(OC)cc(OC)c3C[C@@H]2O)cc1OC

1: 0.998; 2: 1.01

---

Would you kindly list normalized growth for each of these compounds?
Assay: chemical genetic growth profiling, strain panel (AID 1159580)
Conditions: S. cerevisiae deletion strains, growth OD, locus YGL086W, strain mad1, stronger effect = lower value
In all, about 5,500 compounds went through this assay and about 2,000 (36%) were called active. Roughly 18% stayed inconclusive and do not appear here. The list shows a part of the results.
One number for each entry.

Solved entries:
Compound: CCn1cc(C(=O)O)c(=O)c2cc(F)c(N3CCNCC3)nc21
Value: 1.01

Compound: N[C@@H](Cc1ccc(N(CCCl)CCCl)cc1)C(=O)O
Value: 0.983

Compound: CCC(C)C(=O)O[C@@H]1C[C@@]2(C)[C@H](c3ccoc3)OC(=O)CC23OC2(C)OC34[C@H](OC(=O)C(C)C)[C@@]3(O)[C@@H](OC(=O)C5(C)OC5C)[C@@]5(C)C[C@]3(O)[C@@](C)([C@H]5CC(=O)OC)C14O2 (stereo partly specified)
Value: 1.02

Compound: O=C(O)CCCc1ccccc1
Value: 0.97

Compound: Cn1c(=O)c2c(ncn2CC(O)CO)n(C)c1=O (stereo unspecified)
Value: 1.01

Compound: CN(C)CCN(Cc1cccs1)c1ccccn1
Value: 0.982

// input: 4 compounds below; output: normalized growth for each
1. CN(C)CCN(Cc1ccccc1)c1ccccn1
2. Cc1ncc(CNC(=O)N(CCCl)N=O)c(N)n1
3. CC1COc2c(N3CCN(C)CC3)c(F)cc3c(=O)c(C(=O)O)cn1c23 (stereo unspecified)
4. C[C@H]1COc2c(N3CCN(C)CC3)c(F)cc3c(=O)c(C(=O)O)cn1c23

0.992
1
1
1.01

# lookup: normalized growth of CC1CCc2cc(F)cc3c(=O)c(C(=O)O)cn1c23 (stereo unspecified)
0.987

---

Assay: chemical genetic growth profiling, strain panel (AID 1159580);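 also: tested at 20 µM; growth read once vehicle control cultures reached saturation at 30 °C; 1 = growth at the plate median or of vehicle wells; lower values mean less growth of the strain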
Conditions: S. cerevisiae deletion strains, growth OD, locus YKL190W, strain CNB1, stronger effect = lower value
The campaign covered roughly 5,500 compounds. About 2,000 (36%) were called active. Roughly 18% stayed inconclusive and do not appear here. The list shows a part of the results.
For each record, write down the corresponding normalized growth.
One number for each entry.

Answered examples (4):
Compound: CCC(C)C(=O)OC1CC2(C)C(c3ccoc3)OC(=O)CC23OC2(C)OC34C(OC(=O)C(C)C)C3(O)C(OC(=O)C5(C)OC5C)C5(C)CC3(O)C(C)(C5C(=O)OC)C14O2 (stereo not drawn)
normalized growth: 1

Compound: COC(=O)/C=C/C(C)=C/C=C/C(C)=C/C=C/C=C(C)/C=C/C=C(C)/C=C/C(=O)O
normalized growth: 1.01

Compound: O=C(CSc1ccc(Cl)cc1)Nc1ccc(F)cc1
normalized growth: 0.934

Compound: COc1c(N2CCNC(C)C2)c(F)cc2c(=O)c(C(=O)O)cn(C3CC3)c12 (stereo not drawn)
normalized growth: 1.01

Look at each compound and report its normalized growth.
1. O=C1CCC(N2C(=O)c3ccccc3C2=O)C(=O)N1 (stereo not drawn)
2. CCC(C)C(=O)O[C@@H]1C[C@@]2(C)[C@H](c3ccoc3)OC(=O)CC23OC2(C)OC34[C@H](OC(=O)C(C)C)[C@@]3(O)[C@@H](OC(=O)C5(C)OC5C)[C@@]5(C)C[C@]3(O)[C@@](C)([C@H]5CC(=O)OC)C14O2 (stereo partly drawn)
3. COc1ccc(OC)c(C(O)CNC(=O)CN)c1 (stereo not drawn)
4. C[C@H]1COc2c(N3CCN(C)CC3)c(F)cc3c(=O)c(C(=O)O)cn1c23

1: 1.02; 2: 0.999; 3: 0.984; 4: 0.998

---

Experiment: chemical genetic growth profiling, strain panel (AID 1159580);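 also: tested at 20 µM; growth read once vehicle control cultures reached saturation at 30 °C; 1 = growth at the plate median or of vehicle wells; lower values mean less growth of the strain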
Conditions: S. cerevisiae deletion strains, growth OD, locus YER167W, strain BCK2, stronger effect = lower value
About 2,000 (36%) of roughly 5,500 compounds were called active. Inconclusive results (about 18%) are left out. The list shows a part of the results.
Could you please report measured normalized growth for the items listed next?
Numbers only.

Compound: CCn1cc(C(=O)O)c(=O)c2cc(F)c(N3CCNCC3)nc21
Measure: normalized growth
Value: 1.03

For each of the items listed, what is its normalized growth?
1. CNCCC(Oc1ccc(C(F)(F)F)cc1)c1ccccc1 (stereo not given)
2. COC(=O)/C=C/C(C)=C/C=C/C(C)=C/C=C/C=C(C)/C=C/C=C(C)/C=C/C(=O)O
3. CCCCCCCCCCC[C@@H](C[C@H]1OC(=O)[C@H]1CCCCCC)OC(=O)[C@@H](CC(C)C)NC=O
4. O=S(=O)(O)CCS
5. O=C1CCC(N2C(=O)c3ccccc3C2=O)C(=O)N1 (stereo not given)

1.01
1.01
1.02
0.996
1.01

Would you mind giving normalized growth for every compound in the list below?
1. O=C(OCC(O)CO)c1ccccc1Nc1ccnc2cc(Cl)ccc12 (stereo not given)
2. COc1ccc(C(=O)CC(=O)O)c2c1C=CC(C)(C)O2
3. C[C@]12CCC(=O)C=C1C=CC1C2CC[C@@]2(C)C1CC[C@@]21CCC(=O)O1 (stereo not given in full)
4. COc1cc(OC)c2c(c1)O[C@H](c1cc(OC)c(OC)c(OC)c1)[C@H](OC(=O)c1cc(OC)c(OC)c(OC)c1)C2
5. CN1CC(=O)N=C1N
6. CCn1cc(C(=O)O)c(=O)c2cc(F)c(N3CCNC(C)C3)c(F)c21 (stereo not given)

[0.986, 0.993, 0.956, 1.02, 1.01, 0.971]

Please look at the items below and tell me normalized growth for each one, in order.
1. O=C(O)CCCc1ccc(N(CCCl)CCCl)cc1
2. CCN(CC)Cc1ccc(Nc2ccnc3cc(Cl)ccc23)cc1O
3. COc1ccc2c(c1)OC/C(=C/c1ccc(OC)c(OC)c1)C2=O
4. Oc1cc(O)c2c(c1)O[C@H](c1ccc(O)c(O)c1)[C@@H](O)C2
5. CCCCC[C@H]1C(=O)O[C@H](C)[C@H](NC(=O)c2cccc(NC=O)c2O)C(=O)O[C@@H](C)[C@@H]1OC(=O)CC(C)C
6. O=C1c2ccc(O)cc2O[C@H](c2cc(O)c(O)c(O)c2)[C@H]1O
7. COc1ccc(C(=O)O)cc1OC

0.99
1.01
0.947
0.994
0.904
1.04
0.999

---

Consider the following compounds; for each one, report its normalized growth.
Experiment: chemical genetic growth profiling, strain panel (AID 1159580);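 also: tested at 20 µM; growth read once vehicle control cultures reached saturation at 30 °C; 1 = growth at the plate median or of vehicle wells; lower values mean less growth of the strain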
Details: S. cerevisiae deletion strains, growth OD, locus YGL167C, strain pmr1, stronger effect = lower value
In all, about 5,500 compounds went through this assay and about 2,000 (36%) were called active. Not shown: some 18% with an inconclusive outcome. The list shows a part of the results.
One number for each entry.

Solved cases (8 shown):
Compound: Cc1ncc(CNC(=O)N(CCCl)N=O)c(N)n1
normalized growth: 1
//
Compound: C=C1CCC2[C@](C)(CO)[C@H](O)CC[C@@]2(C)[C@@H]1C/C=C1/C(=O)OC[C@H]1O (some centres undefined)
normalized growth: 0.992
//
Compound: CC1(O)CC2C(CC1O)C2(C)C (centres undefined)
normalized growth: 1.01
//
Compound: C/C=C(\C)C(=O)O[C@H]1C[C@@H](OC(C)=O)[C@@]2(C(=O)OC)CO[C@@H]3C2[C@]12CO[C@](O)(C(=O)OC)[C@H]2[C@](C)(C12O[C@@]1(C)[C@H]1C[C@@H]2OC2OC=C[C@@]21O)[C@@H]3O (some centres undefined)
normalized growth: 0.97
//
Compound: C=C[C@@](C)(O)CCC1C(=C)C[C@H](OC(C)=O)C2C(C)(C)CCCC12C (some centres undefined)
normalized growth: 1.01
//
Compound: C[C@]12CCC(=O)C=C1C=CC1C2CC[C@@]2(C)C1CC[C@@]21CCC(=O)O1 (some centres undefined)
normalized growth: 0.968
//
Compound: CCN1CCCC(OC(=O)C(c2ccccc2)c2ccccc2)C1 (centres undefined)
normalized growth: 0.981
//
Compound: C=C[C@@](C)(O)CCC1C(=C)CCC2[C@@](C)(CO)CCC[C@]12C (some centres undefined)
normalized growth: 1.06

Item C=C[C@@](C)(O)CCC1C(=C)C[C@H](O)C2C(C)(C)CCCC12C (some centres undefined) has what recorded normalized growth?
0.97
